Assay: endothelial E-selectin expression blockers – imaging, HUVEC, immunofluorescence, MLSMR starter and 10KST1 sets, primary screen (AID 487);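 also: signal is fraction of cell area covered by stained E-selectin grains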
Conditions: HUVEC TNFalpha-induced E-selectin immunofluorescence imaging, at 2 µM; hits give high values

compound	inhibition [%]
O=C(NCCc1ccccn1)c1ccc(COc2ccccc2)o1	-39.9
CCc1nn2c(N3CCOCC3)cc(C)nc2c1-c1ccc(F)cc1	-46.2
CCN(CC)CCCNS(=O)(=O)c1ccc(OC)cc1	-61.5
CCOc1cc(NC(=O)c2ccco2)c(OCC)cc1NC(=O)CCC(=O)NCc1cccnc1	16
CCOC(=O)C(C#N)C(c1cccnc1)c1c(C)[nH][nH]c1=O (stereo unspecified)	-131
COc1ccc(Cl)cc1-c1n[nH]c(=S)o1	-86.8
